# test: HILIC, Waters Atlantis Premier BEH Z-HILIC, 100 × 2.1 mm, 1.7 µm, 40 °C, 0.16 mL/min, estimated dead time 1.4 min; A: water + 20 mM ammonium carbonate + 5 µM medronic acid; B: 10% water + 90% acetonitrile + 2 mM ammonium carbonate + 0.5 µM medronic acid; gradient (min/%B) 0/97 18/55 18.1/20 21.5/20 22/97 23.5/97 25.5/97
# run_conditions: stereoisomer not certain
metric: LC retention time (min)
// return numeric value only (unit: min, not printed)

// LC retention time lookup, key: Cc1cc2nc3c(=O)[nH]c(=O)nc-3n(CC(O)C(O)C(O)COP(=O)(O)OP(=O)(O)OCC3OC(n4cnc5c(N)ncnc54)C(O)C3O)c2cc1C (centres undefined) [FAD] 7.63

// LC retention time lookup, key: O=C(O)CC(O)(CC(=O)O)C(=O)O [Citric acid] 13.7

// LC retention time lookup, key: O=P(O)(O)OCC1OC(O)C(O)C(O)C1O (centres undefined) [Glucose-6-phosphate] 12.5

// LC retention time lookup, key: NC(=O)C1=CN(C2OC(COP(=O)(O)OP(=O)(O)OCC3OC(n4cnc5c(N)ncnc54)C(OP(=O)(O)O)C3O)C(O)C2O)C=CC1 (centres undefined) [NADPH] 13.8
